Exercise: state measured pIC50 for each of the compounds provided.
# Tested on: B16F10 mouse melanoma cell line
# EXPERIMENT_SUMMARY: Growth inhibition test (MTT) for cytotoxic properties on tumour cell lines
# Type: cell-based
# EXPERIMENTAL_PARAMETERS: B16F10 cells, growth checked after day 6, read-out: IC50 of the cytotoxic action on tumour cell lines, B16F10
*1 amine or outer side, *2 acyl side, *3 side chain or, on linkers, in order; H or OH if unused. Where a SMILES comes first, the peptide text is derived from it. [ ]: non-standard residue; d: D form. The star is where a group is joined. Camptothecin(20R,20-O) = CC[C@]1(O*)C(=O)OCc2c1cc1n(c2=O)Cc2cc3ccccc3nc2-1; X9 = C[C@H]1O[C@@H](Oc2ccc(NC(=S)*)cc2)[C@@H](O)[C@@H](OCCO)[C@H]1O; X4 = CO[C@H]1[C@H](O)[C@@H](Oc2ccc(NC(=S)*)cc2)O[C@@H](C)[C@H]1O; X6 = CO[C@@H]1[C@H](O)[C@H](Oc2ccc(NC(=S)*)cc2)O[C@H](C)[C@@H]1O; X1 = CO[C@H]1[C@@H](O)[C@@H](C)OC(Oc2ccc(NC(=S)*)cc2)[C@H]1O; X2 = CC[C@@]1(O*)C(=O)OCc2c1cc1n(c2=O)Cc2cc3ccccc3nc2-1; X3 = CO[C@H]1[C@@H](O)[C@@H](C)OC(Oc2ccc(N*)cc2)[C@H]1O; CO = O=C([*:1])[*:2]
Numbers only, as −log10 of the molar value.

Observe how each entry below is paired with its result.
{"COMPOUND": "CC[C@@]1(OC(=O)[C@@H](NC(=O)[C@@H]2CCCN2C(=O)[C@H](CC(C)C)NC(=O)CNC(=O)[C@H](CC(C)C)NC(=O)[C@@H]2CCCN2C(=S)Nc2ccc(O[C@H]3O[C@@H](C)[C@@H](O)[C@@H](OC)[C@@H]3O)cc2)C(C)C)C(=O)OCc2c1cc1n(c2=O)Cc2cc3ccccc3nc2-1 [Example 21] (X4-PLGLPV-X2)", "TARGET_OR_TEST_SYSTEM": "B16F10 mouse melanoma cell line", "pIC50": 6.10}
{"COMPOUND": "CC[C@@]1(OC(=O)[C@H](NC(=O)[C@@H](Cc2c[nH]cn2)NC(=O)[C@@H](CC(C)C)NC(=O)CNC(=O)[C@H](CC(C)C)NC(=O)[C@H]2CCCN2C(=S)Nc2ccc(OC3O[C@H](C)[C@H](O)[C@H](OC)[C@@H]3O)cc2)C(C)C)C(=O)OCc2c1cc1n(c2=O)Cc2cc3ccccc3nc2-1 (stereo partly drawn) [Example 13] (X1-[dP]LG[dL][dH][dV]-X2)", "TARGET_OR_TEST_SYSTEM": "B16F10 mouse melanoma cell line", "pIC50": 6.70}

Count: 4. Required value per item: pIC50.
1. CC[C@@]1(OC(=O)[C@H](NC(=O)[C@@H](CC(N)=O)NC(=O)[C@@H](CC(C)C)NC(=O)CNC(=O)[C@H](CC(C)C)NC(=O)[C@H]2CCCN2C(=O)Nc2ccc(OC3O[C@H](C)[C@H](O)[C@H](OC)[C@@H]3O)cc2)C(C)C)C(=O)OCc2c1cc1n(c2=O)Cc2cc3ccccc3nc2-1 (stereo partly drawn) [Example 6] ({X3-CO}-[dP]LG[dL][dN][dV]-X2)
2. CC[C@@]1(OC(=O)[C@@H](NC(=O)CNC(=O)[C@H](CC(C)C)NC(=O)CNC(=O)[C@H](CC(C)C)NC(=O)[C@@H]2CCCN2C(=S)Nc2ccc(O[C@H]3O[C@@H](C)[C@@H](O)[C@@H](OC)[C@@H]3O)cc2)C(C)C)C(=O)OCc2c1cc1n(c2=O)Cc2cc3ccccc3nc2-1 [Example 20] (X4-PLGLGV-X2)
3. CC[C@@]1(OC(=O)[C@H](NC(=O)[C@@H](CC(=O)O)NC(=O)[C@@H](CC(C)C)NC(=O)CNC(=O)[C@H](CC(C)C)NC(=O)[C@H]2CCCN2C(=S)Nc2ccc(OC3O[C@H](C)[C@H](O)[C@H](OC)[C@@H]3O)cc2)C(C)C)C(=O)OCc2c1cc1n(c2=O)Cc2cc3ccccc3nc2-1 (stereo partly drawn) [Example 7] (X1-[dP]LG[dL][dD][dV]-X2)
4. CC[C@]1(OC(=O)[C@H](NC(=O)[C@@H](CCCCN)NC(=O)[C@@H](CC(C)C)NC(=O)CNC(=O)[C@H](CC(C)C)NC(=O)[C@H]2CCCN2C(=S)Nc2ccc(O[C@@H]3O[C@H](C)[C@H](O)[C@H](OC)[C@@H]3O)cc2)C(C)C)C(=O)OCc2c1cc1n(c2=O)Cc2cc3ccccc3nc2-1 [Example 10] (X6-[dP]LG[dL][dK][dV]-{Camptothecin(20R,20-O)})

Result block:
[6.52, 6.10, 6.22, 6.82]

Query block: # get_value(readout= pIC50, system= B16F10 mouse melanoma cell line) for CC[C@]1(OC(=O)[C@H](NC(=O)[C@@H](CC(N)=O)NC(=O)[C@@H](CC(C)C)NC(=O)CNC(=O)[C@H](CC(C)C)NC(=O)[C@H]2CCCN2C(=S)Nc2ccc(O[C@@H]3O[C@H](C)[C@H](O)[C@H](OCCO)[C@@H]3O)cc2)C(C)C)C(=O)OCc2c1cc1n(c2=O)Cc2cc3ccccc3nc2-1 [Example 25] (X9-[dP]LG[dL][dN][dV]-{Camptothecin(20R,20-O)})
Result block: 6.10

Just for reference, patent US20020173452A1 is where these values come from.
